test method notes: Plasma protein binding assay (PPB), equilibrium dialysis, 10% FCS in PBS
Assay type: in vitro ADME
assay context: bovine, read-out: PPB 10% FCS (% fu)
Listing of entries alongside the reported fraction unbound.
Answer with a number only.

Recorded fraction unbound, per entry:
compound	test result
C[C@H](Oc1cc(-n2ccc(C(=O)NC3COC3)n2)nc(-c2noc3c2CCC[C@@]32CCCc3sc(N)c(C#N)c32)n1)[C@@H]1CCCN1C	0.15
C[C@H](Oc1cc(N2CCNCC23CCOC3)nc(-c2onc3c2CCC[C@@]32CCCc3sc(N)c(C#N)c32)n1)[C@@H]1CCCN1C (some centres unmarked)	0.7
C[C@H](Oc1cc(-n2cc3ccn([C@@H](C)c4ccccn4)c(=O)c3n2)nc(-c2noc3c2CCC[C@@]32CCCc3sc(N)c(C#N)c32)n1)[C@@H]1CCCN1C	0.06

### Prompt Could you tell me which fraction unbound is on file for COc1c(O[C@@H](C)[C@@H]2CCCN2C)nc(-c2noc3c2CCC[C@@]32CCCc3sc(N)c(C#N)c32)nc1-n1ccc(C(N)=O)n1 ?
### Response 0.21

### Prompt Could you tell me which fraction unbound is on file for C[C@H](Oc1cc(-n2cncc3ccnc2-3)nc(-c2noc3c2CCC[C@@]32CCCc3sc(N)c(C#N)c32)n1)[C@@H]1CCCN1C ?
### Response 0.07

Data provenance: patent US20240174690A1
